# System: immortalized murine embryonic fibroblasts (Mef)
# ASSAY_METHOD_TEXT: Pooled negative selection RNAi screening (deep sequencing)
# Assay type: cell-based
# SETTINGS: deep sequencing reads, on dox compared to initial representation

>  <MOLECULE>
Pdgfrb.1028: shRNA, SEQ ID NO: 163 (nucleic acid) TGCTGTTGACAGTGAGCGAAACGACCATGGCGATGAGAAATAGTGAAGCCACAGATGTATTTCTCATCGCCATGGTCGTTCTGCCTACTGCCTCGGA

>  <Fold depletion in Mef [Fold]>
2.15

$$$$
>  <MOLECULE>
Ogg1.395: shRNA, SEQ ID NO: 157 (nucleic acid) TGCTGTTGACAGTGAGCGACAGATCAAGTATGGACACTGATAGTGAAGCCACAGATGTATCAGTGTCCATACTTGATCTGCTGCCTACTGCCTCGGA

>  <Fold depletion in Mef [Fold]>
1.44

$$$$
